test_target: acetylcholine receptor
protocol_summary: SPR, AchR immobilized on CM5 chip, peptide at 10 uM

| binder | Binding affinity (RU) |
| --- | --- |
| RMAMR [5mer-1028] | 28 |
| RKMAK [5mer-706] | 27 |
| RFMGK [5mer-704] | 28 |
| RRFEMR [6mer-1-815] | 23 |
| KEPER [5mer-1006] | 17 |
| RGLQRK [6mer-2-393] | 145 |
| KNTNR [5mer-1027] | 28 |
| KSLYKK [6mer-2-389] | 153 |
| RHKVR [5mer-1012] | 22 |
| KGVRRR [6mer-2-360] | 141 |
| RKKKFR [6mer-1-827] | 30 |
| KISHK [5mer-702] | 30 |
| KKMTAR [6mer-1-865] | 21 |
| RCCAK [5mer-1042] | 28 |
| RNSDK [5mer-742] | 11 |
| KLVQRR [6mer-2-372] | 141 |
| KYTMR [5mer-1016] | 28 |
| KCCVK [5mer-1013] | 19 |
| KEKAR [5mer-710] | 21 |
| KQVYKK [6mer-2-339] | 151 |
| RRCMIK [6mer-1-836] | 22 |
| KISER [5mer-719] | 21 |
| RSILRK [6mer-2-401] | 153 |
